Origin of the recorded values: patent US12000819B2

Would you mind telling me the reported Correction coefficient α of each entry?
Test: Concentration of gas dissolved in cell culture liquid or pure water after bubbling, measured by gas chromatography
Assay type: physicochemical
Conditions: Table 1; ratio of average gas concentrations in cell culture liquid and pure water
One number for each entry.

-- ask Which Correction coefficient α value belongs to FC(F)Cl ?
-- reply 1.34

Hello, I would appreciate it if you could give Correction coefficient α for each entry below.
1. FCF
2. C=C(F)C(F)(F)F
3. FCC(F)(F)F

-- reply
1. 1.39
2. 1.26
3. 1.24

###

Test: Concentration of gas dissolved in cell culture liquid or pure water after bubbling, measured by gas chromatography
Assay type: physicochemical
Details: Table 1; gas bubbled at 20 mL/min for 1 minute in 5 mL cell culture medium, liquid temperature 23° C.; average of three measurements
Would you mind telling me the reported Gas concentration, Cell culture liquid of each entry?
Numbers only, in ppm.

Here's what some known entries look like.
-- ask Which Gas concentration, Cell culture liquid value belongs to FCF [CH2F2] ?
-- reply 2972

-- ask Which Gas concentration, Cell culture liquid value belongs to C=C(F)C(F)(F)F [CF3—CF═CH2] ?
-- reply 262

-- ask Which Gas concentration, Cell culture liquid value belongs to FCC(F)(F)F [CH2F—CF3] ?
-- reply 529

Next item in the queue.
-- ask Which Gas concentration, Cell culture liquid value belongs to FC(F)Cl [CHF2Cl] ?
-- reply 1785
